Tested on: U2OS
test_name: cell count relative to DMSO control (panel A, nuclei/RNA/PMG/mitochondria stain) (fraction of control); higher = more cells (less toxicity)
assay_context: 5 µM; treatment time: 24 h
Is cell count at least 0.9? Then 1 (yes). If not, 0 (no).

# chemical_string, class
measured = [
    ("O=C1c2c(O)ccc(O)c2C(=O)c2c(NCCNCCO)ccc(NCCNCCO)c21", "0 (no)"),
    ("Cn1c(CCCC(=O)O)nc2cc(N(CCCl)CCCl)ccc21", "0 (no)"),
    ("O=C(CCCN1CCC(O)(c2ccc(Cl)cc2)CC1)c1ccc(F)cc1", "1 (yes)"),
    ("Cc1[nH]c2ccccc2c1CCNC(=O)c1cccs1", "1 (yes)"),
]

Turning to the following molecule.
## Task // inclusive: cell count at least 0.9? input: "CCc1c2c(nc3ccc(OC(=O)N4CCC(N5CCCCC5)CC4)cc13)-c1cc3c(c(=O)n1C2)COC(=O)[C@]3(O)CC"
## Result 0 (no)

----------
System: U2OS-LMNB1-TUBA1B-ACTB
test_name: cell count relative to DMSO control (panel C1, DRAQ5/ER stain) (fraction of control); higher = more cells (less toxicity)
assay_context: 1.25 µM; treatment time: 24 h
endpoint_name: cell count

Take a look at these entries with their results.
# chemical_string, tested_system, endpoint_name, test_value
rows = [
    ("Nc1c2ccccc2nc2ccccc12", "U2OS-LMNB1-TUBA1B-ACTB", "cell count", 1.12),
    ("NS(=O)(=O)C#Cc1ccccc1", "U2OS-LMNB1-TUBA1B-ACTB", "cell count", 1.08),
    ("Cc1c(N)nc([C@H](CC(N)=O)NC[C@H](N)C(N)=O)nc1C(=O)N[C@H](C(=O)N[C@H](C)[C@@H](O)[C@H](C)C(=O)N[C@H](C(=O)NCCc1nc(-c2nc(C(=O)NCCC[S+](C)C)cs2)cs1)[C@@H](C)O)[C@@H](O[C@@H]1O[C@@H](CO)[C@@H](O)[C@H](O)[C@@H]1O[C@H]1O[C@H](CO)[C@@H](O)[C@H](OC(N)=O)[C@@H]1O)c1c[nH]cn1", "U2OS-LMNB1-TUBA1B-ACTB", "cell count", 0.934),
]

## Task Sample "C=CCNC1=C2C[C@@H](C)C[C@H](OC)[C@H](O)[C@@H](C)/C=C(\C)[C@H](OC(N)=O)[C@@H](OC)/C=C\C=C(/C)C(=O)NC(=CC1=O)C2=O" — what was its cell count?
## Result 0.938

## Task Sample "Cc1c(Cl)cccc1Nc1ccccc1C(=O)O" — what was its cell count?
## Result 1.11

## Task Sample "CC[C@H]1CN2CCc3cc(OC)c(OC)cc3[C@@H]2C[C@@H]1C[C@H]1NCCc2cc(OC)c(OC)cc21" — what was its cell count?
## Result 1

----------
Test system: U2OS-mOrange2-Peroxisome
test_name: cell count relative to DMSO control (panel B, lysosome/peroxisome/lipid stain) (fraction of control); higher = more cells (less toxicity)
assay_context: 2.5 µM; treatment time: 24 h
Here the recorded cell count is given for each entry.

# compound, cell count
measured = [
    ("C=CCNC1=C2C[C@@H](C)C[C@H](OC)[C@H](O)[C@@H](C)/C=C(\\C)[C@H](OC(N)=O)[C@@H](OC)/C=C\\C=C(/C)C(=O)NC(=CC1=O)C2=O", 0.144),
    ("Cc1c(Cl)cccc1Nc1ccccc1C(=O)O", 0.953),
    ("Cc1[nH]c2ccccc2c1CCNC(=O)c1cccs1", 0.756),
    ("C[C@H]1O[C@@H](O[C@H]2[C@@H](O)C[C@H](O[C@H]3[C@@H](O)C[C@H](O[C@H]4CC[C@@]5(C)[C@H](CC[C@@H]6[C@@H]5CC[C@]5(C)[C@@H](C7=CC(=O)OC7)CC[C@]65O)C4)O[C@@H]3C)O[C@@H]2C)C[C@H](O)[C@@H]1O", 1.09),
    ("CC(C)n1nc(-c2ccc3oc(N)nc3c2)c2c(N)ncnc21", 0.301),
    ("COc1ccc2cc1Oc1ccc(cc1)C[C@H]1c3cc(c(OC)cc3CCN1C)Oc1c(OC)c(OC)cc3c1[C@H](C2)N(C)CC3", 0.976),
]

Continue with the next compound.
## Task Sample "N#C[C@H](O[C@@H]1O[C@H](CO[C@@H]2O[C@H](CO)[C@@H](O)[C@H](O)[C@H]2O)[C@@H](O)[C@H](O)[C@H]1O)c1ccccc1" — what was its cell count?
## Result 0.983

----------
Here the recorded cell count is given for each entry.
System: U2OS
test_name: cell count relative to DMSO control (panel A, nuclei/RNA/PMG/mitochondria stain) (fraction of control); higher = more cells (less toxicity)
assay_context: 5 µM; treatment time: 24 h
Please give only the number in your answer, with no unit.

# molecule, endpoint_name, test_value
records = [
    ("CN(Cc1cnc2nc(N)nc(N)c2n1)c1ccc(C(=O)N[C@@H](CCC(=O)O)C(=O)O)cc1 [methotrexate]", "cell count", 0.561),
    ("CC(C)n1c(/C=C/C(O)CC(O)CC(=O)O)c(-c2ccc(F)cc2)c2ccccc21 (stereo not drawn)", "cell count", 0.826),
]

Continue with the next molecule.
## Task Sample "Cc1c2oc3c(C)ccc(C(=O)N[C@@H]4C(=O)N[C@H](C(C)C)C(=O)N5CCC[C@H]5C(=O)N(C)CC(=O)N(C)[C@@H](C(C)C)C(=O)O[C@@H]4C)c3nc-2c(C(=O)N[C@@H]2C(=O)N[C@H](C(C)C)C(=O)N3CCC[C@H]3C(=O)N(C)CC(=O)N(C)[C@@H](C(C)C)C(=O)O[C@@H]2C)c(N)c1=O" — what was its cell count?
## Result 0.73

----------
Test system: U2OS-LMNB1-TUBA1B-ACTB
test_name: cell count relative to DMSO control (panel C1, DRAQ5/ER stain) (fraction of control); higher = more cells (less toxicity)
assay_context: 0.625 µM; treatment time: 24 h
Here the recorded cell count is given for each entry.
Please give only the number in your answer, with no unit.

Take a look at these entries with their results.
# compound, cell count
rows = [
    ("CNCCCN1c2ccccc2CCc2ccccc21", 0.817),
    ("N.N.[Cl][Pt][Cl] [cisplatin]", 1.12),
    ("COc1cccc2c1C(=O)c1c(O)c3c(c(O)c1C2=O)C[C@@](O)(C(=O)CO)C[C@@H]3O[C@H]1C[C@H](N)[C@H](O)[C@H](C)O1", 1.23),
    ("CC(=O)N[C@H]1[C@@H](O[C@@H]2O[C@H](CC(O)[C@H]3O[C@@H](n4ccc(=O)[nH]c4=O)[C@H](O)[C@@H]3O)[C@H](O)[C@H](O)[C@H]2NC(=O)/C=C/CC(C)C)O[C@H](CO)[C@@H](N)[C@@H]1O (some centres not stated)", 0.626),
    ("C[C@H]1O[C@@H](O[C@H]2[C@@H](O)C[C@H](O[C@H]3[C@@H](O)C[C@H](O[C@H]4CC[C@@]5(C)[C@H](CC[C@@H]6[C@@H]5CC[C@]5(C)[C@@H](C7=CC(=O)OC7)CC[C@]65O)C4)O[C@@H]3C)O[C@@H]2C)C[C@H](O)[C@@H]1O", 1.05),
    ("CC(NC(=O)c1ccccc1/N=C/c1c(O)ccc2ccccc12)c1ccccc1 (configuration not stated)", 0.842),
    ("COc1ccc(C2CNC(=O)C2)cc1OC1CCCC1 (configuration not stated)", 1.14),
    ("O=C(/C=C\\n1cnc(-c2cc(C(F)(F)F)cc(C(F)(F)F)c2)n1)NNc1cnccn1 [selinexor]", 1.06),
]

## Task Sample "COc1cc(NS(C)(=O)=O)ccc1Nc1c2ccccc2nc2ccccc12" — what was its cell count?
## Result 0.858

## Task Sample "Cc1c(N)nc([C@H](CC(N)=O)NC[C@H](N)C(N)=O)nc1C(=O)N[C@H](C(=O)N[C@H](C)[C@@H](O)[C@H](C)C(=O)N[C@H](C(=O)NCCc1nc(-c2nc(C(=O)NCCC[S+](C)C)cs2)cs1)[C@@H](C)O)[C@@H](O[C@@H]1O[C@@H](CO)[C@@H](O)[C@H](O)[C@@H]1O[C@H]1O[C@H](CO)[C@@H](O)[C@H](OC(N)=O)[C@@H]1O)c1c[nH]cn1" — what was its cell count?
## Result 0.893

## Task Sample "CCCCCCCCCCCCCCCCCCOP(=O)([O-])OC1CC[N+](C)(C)CC1" — what was its cell count?
## Result 1.15

----------
System: U2OS-LMNB1-TUBA1B-ACTB
test_name: cell count relative to DMSO control (panel C1, DRAQ5/ER stain) (fraction of control); higher = more cells (less toxicity)
assay_context: 20 µM; treatment time: 24 h
Here the recorded cell count is given for each entry.
Please give only the number in your answer, with no unit.

# molecule, test_value
records = [
    ("CCOc1ccccc1-n1c(C(C)N2CCN(C(=O)COc3ccc(Cl)cc3)CC2)nc2ccccc2c1=O (centres undefined) [erastin]", 0.905),
    ("COc1ccc(C2CNC(=O)C2)cc1OC1CCCC1 (centres undefined) [rolipram]", 1.01),
]

## Task Enter reported cell count observed with U2OS-LMNB1-TUBA1B-ACTB for Cn1c(CCCC(=O)O)nc2cc(N(CCCl)CCCl)ccc21 [bendamustine]
## Result 0.284

## Task Enter reported cell count observed with U2OS-LMNB1-TUBA1B-ACTB for CC(NC(=O)c1ccccc1/N=C/c1c(O)ccc2ccccc12)c1ccccc1 (centres undefined) [sirtinol]
## Result 0.367

## Task Enter reported cell count observed with U2OS-LMNB1-TUBA1B-ACTB for CCN(CC)CCCC(C)Nc1c2ccc(Cl)cc2nc2ccc(OC)cc12 (centres undefined) [mepacrine]
## Result 0.727

## Task Enter reported cell count observed with U2OS-LMNB1-TUBA1B-ACTB for C[C@H]1CCC/C=C/[C@@H]2C[C@H](O)C[C@H]2[C@H](O)/C=C/C(=O)O1 [brefeldin-a]
## Result 0.529

## Task Enter reported cell count observed with U2OS-LMNB1-TUBA1B-ACTB for CCCCCCCC(=O)N[C@H](CN1CCCC1)[C@H](O)c1ccc2c(c1)OCCO2 [eliglustat]
## Result 1.02

## Task Enter reported cell count observed with U2OS-LMNB1-TUBA1B-ACTB for O=C(N/N=C/c1ccc(O)c(O)c1)c1cc2ccccc2cc1O [dynasore]
## Result 0.826

## Task Enter reported cell count observed with U2OS-LMNB1-TUBA1B-ACTB for N#C[C@H](O[C@@H]1O[C@H](CO[C@@H]2O[C@H](CO)[C@@H](O)[C@H](O)[C@H]2O)[C@@H](O)[C@H](O)[C@H]1O)c1ccccc1 [amygdalin]
## Result 0.956

Where do the numbers come from? From the supplement of paper PMC9780213.
